src = paper PMC10865806

target entity: CMY-2 variant N346Y (Klebsiella pneumoniae, UniProt Q48434, N366Y)
Construct: all CMY-2 variant genes encoding the mature enzyme without a signal peptide were cloned into the protein expression plasmid vector pET-30b; made in house; host or cells: E. coli BL21 (DE3), pET-30b
Sequence (Q48434 21-381 N366Y): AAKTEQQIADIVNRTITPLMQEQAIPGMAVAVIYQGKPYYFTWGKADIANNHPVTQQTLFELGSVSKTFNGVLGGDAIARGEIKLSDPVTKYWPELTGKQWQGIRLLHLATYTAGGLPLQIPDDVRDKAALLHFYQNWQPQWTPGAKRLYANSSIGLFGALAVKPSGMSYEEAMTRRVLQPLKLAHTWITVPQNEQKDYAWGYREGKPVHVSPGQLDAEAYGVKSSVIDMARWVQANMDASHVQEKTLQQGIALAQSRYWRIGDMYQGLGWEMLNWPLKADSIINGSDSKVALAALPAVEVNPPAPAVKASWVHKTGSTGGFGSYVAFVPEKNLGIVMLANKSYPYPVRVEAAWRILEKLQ
method: Steady-state hydrolysis kinetics
Type: biochemical, Escherichia coli
study conditions: substrate inhibition, Haldane equation
quantity kind: pKi
Note: pKi values are expressed as the negative base-10 logarithm of concentration in M.

Form: compound = "O=C(Cc1cccs1)N[C@@H]1C(=O)N2C(C(=O)O)=C(/C=C/c3ccc([N+](=O)[O-])cc3[N+](=O)[O-])CS[C@H]12" ; pKi = 4.06

====

target entity: V211S (CMY-42) (Klebsiella pneumoniae, UniProt Q48434, V231S)
Construct: all CMY-2 variant genes encoding the mature enzyme without a signal peptide were cloned into the protein expression plasmid vector pET-30b; made in house; host or cells: E. coli BL21 (DE3), pET-30b
method: Steady-state hydrolysis kinetics
Assay type: biochemical, Escherichia coli
study conditions: PBS pH 7.2, 25°C
Would you mind telling me the reported Km of each entry?
Report as a plain number; the unit µM is understood.

Form: compound = "CC(C)(O/N=C(\C(=O)N[C@@H]1C(=O)N2C(C(=O)[O-])=C(C[n+]3ccccc3)CS[C@H]12)c1csc(N)n1)C(=O)O" ; Km = 74

Form: compound = "O=C(Cc1cccs1)N[C@@H]1C(=O)N2C(C(=O)O)=C(/C=C/c3ccc([N+](=O)[O-])cc3[N+](=O)[O-])CS[C@H]12" ; Km = 29

Form: compound = "CC(C)(O/N=C(\C(=O)N[C@@H]1C(=O)N2C(C(=O)[O-])=C(C[N+]3(CCNC(=O)c4ccc(O)c(O)c4Cl)CCCC3)CS[C@H]12)c1csc(N)n1)C(=O)O" ; Km = 68

Form: compound = "CC(=O)OCC1=C(C(=O)O)N2C(=O)[C@@H](NC(=O)Cc3cccs3)[C@H]2SC1" ; Km = 7.5

====

Would you mind telling me the reported pKi of each entry?
target entity: CMY-185 (Klebsiella pneumoniae, UniProt Q48434, A134E/N366Y/Q140K/V231S)
Construct: all CMY-2 variant genes encoding the mature enzyme without a signal peptide were cloned into the protein expression plasmid vector pET-30b; made in house; host or cells: E. coli BL21 (DE3), pET-30b
method: Competitive inhibition of cephalothin hydrolysis and avibactam inhibition kinetics
Assay type: biochemical, Escherichia coli
study conditions: CMY-185; reporter substrate cephalothin 100 µM, Dixon plot; read-out: Ki app
Note: pKi values are expressed as the negative base-10 logarithm of concentration in M.

Form: compound = CC(C)(O/N=C(\C(=O)N[C@@H]1C(=O)N2C(C(=O)[O-])=C(C[N+]3(CCNC(=O)c4ccc(O)c(O)c4Cl)CCCC3)CS[C@H]12)c1csc(N)n1)C(=O)O [Cefiderocol, cefiderocol] ; pKi = 6.70

Form: compound = NC(=O)[C@@H]1CC[C@@H]2CN1C(=O)N2OS(=O)(=O)O [Avibactam, avibactam] ; pKi = 2.89
